IC50 by entry:
- TARGET OR TEST SYSTEM: Delta-type opioid receptor (Cavia porcellus)
- TEST SUMMARY: Evaluated for the inhibition of [3H]DADLE binding to Opioid receptor delta 1 of guinea pig brain
Non-standard residues stand in square brackets, D forms with d. Residues, ends and D or L forms follow the SMILES beside them. ξ: configuration not given here. Met(O) = CS(=O)CC[C@H](N)C(=O)O; ξA = CC(N)C(=O)O; Sar = CNCC(=O)O

[
  {
    "COMPOUND": "CN(CC(N)=O)C(=O)[C@H](Cc1ccccc1)NC(=O)[C@H](CC[S+](C)[O-])NC(=O)[C@@H](N)Cc1ccc(O)cc1 (stereo partly drawn) (H-Y[Met(O)]F[Sar]-NH2)",
    "UNITS": "nM",
    "IC50": 440
  },
  {
    "COMPOUND": "CN(CC(=O)O)C(=O)[C@H](Cc1ccccc1)NC(=O)[C@H](CC[S+](C)[O-])NC(=O)[C@@H](N)Cc1ccc(O)cc1 (stereo partly drawn) (H-Y[Met(O)]F[Sar]-OH)",
    "UNITS": "nM",
    "IC50": 2120
  },
  {
    "COMPOUND": "CC(NC(=O)[C@H](Cc1ccccc1)NC(=O)[C@H](CC[S+](C)[O-])NC(=O)[C@@H](N)Cc1ccc(O)cc1)C(N)=O (stereo partly drawn) (H-Y[Met(O)]F[ξA]-NH2)",
    "UNITS": "nM",
    "IC50": 900
  }
]
